# Assay comment: Human HepG2 cell viability assay in 384 well format
# Format: toxicity, cell-based
# Design: dose 125 nL, time 70.5 hour; concentration not given beside the values
# Test context: HepG2 cells, read-out: Inhibition
Please respond with reported cytotoxicity at 70.5 h for every item in the list.
Please reply with the bare figure in % and do not write the unit itself.

Reported cytotoxicity at 70.5 h for Cc1cnn(CCCNC(=O)C2CCCCN2Cc2cccnc2)c1 (stereo unspecified) was 0.0952

Reported cytotoxicity at 70.5 h for `CN(C)CCN1CCCC12CCN(C(=O)c1ccoc1)CC2` was -9.15

Reported cytotoxicity at 70.5 h for `Cc1nc(CN2CCC3(CCCO3)CC2)c2ccccn12` was 14.9

Reported cytotoxicity at 70.5 h for c1ccc(CN2CCC(NCCSc3cnn[nH]3)C2)cc1 (stereo unspecified) was -3.66

Reported cytotoxicity at 70.5 h for CCN1CC2(CC1=O)CN(Cc1ccsc1)CCN(C(=O)C(C)C)C2 (stereo unspecified) was -15.8

Reported cytotoxicity at 70.5 h for CCNC(=O)CCN1CCCC1c1cccc2c1OCCO2 (stereo unspecified) was -7.15

====

# Assay comment: Human HepG2 cell viability assay in 384 well format
# Assay type: toxicity, cell-based
# Design: dose 125 nL, time 70.5 hour; concentration not given beside the values
# Test context: HepG2 cells, read-out: Inhibition
Property name: cytotoxicity at 70.5 h (%)
Please reply with the bare figure in % and do not write the unit itself.

Reported cytotoxicity at 70.5 h for `C[C@@H]1CN(Cc2cc(C3CCCCC3)no2)CC[C@]1(C)O` was -6.92

Reported cytotoxicity at 70.5 h for `O=C(c1cn(-c2ccccc2Cl)nn1)N1CCN(CCO)CC1` was -5.32

Reported cytotoxicity at 70.5 h for `COc1cc(C2(C(=O)NC3CCN(CC4CC4)CC3)CC2)ccc1C` was -6

Reported cytotoxicity at 70.5 h for `Cc1cc(=O)c(C(=O)N(C)Cc2ccc(Cl)c(F)c2)c[nH]1` was -1.6

Reported cytotoxicity at 70.5 h for `Cc1ccnc(NC(=O)CSCc2cccnc2)c1` was -2.67

Reported cytotoxicity at 70.5 h for `O=C(CO)N1C[C@H]2CC[C@@H]1CN(C1Cc3ccccc3C1)C2` was -8.88

Reported cytotoxicity at 70.5 h for Cc1cc(O)cc(C2CCCN2C(=O)c2ccncc2)n1 (stereo not given) was -5.31

Reported cytotoxicity at 70.5 h for CCN(CC1CCOC1)C(=O)c1cnc2onc(C)c2c1 (stereo not given) was -8.61

Reported cytotoxicity at 70.5 h for `COC(=O)[C@H](C)NC(=O)Cc1c(C)nc2cc(=O)[nH]n2c1C` was -7.8

Reported cytotoxicity at 70.5 h for `COc1cccc(CN2C[C@H]3CCNCC[C@H]3S2(=O)=O)c1` was 18.8

Reported cytotoxicity at 70.5 h for COC1COC2(CCN(Cc3cccc(C#N)c3)CC2)C1 (stereo not given) was -10.7

Reported cytotoxicity at 70.5 h for `CO[C@@H]1CCC[C@@H](N(C)C(=O)c2cn3cc(C)ccc3n2)[C@H]1O` was -8.11

Reported cytotoxicity at 70.5 h for `CN1CCN(C(=O)[C@@H]2CCO[C@@H]3CCN(c4ncccn4)C[C@@H]32)CC1` was -3.98

Reported cytotoxicity at 70.5 h for O=C(C1CC1)N1CCC(C(=O)N2CCC(c3ccc(F)cc3)C2)CC1 (stereo not given) was 8.64

Reported cytotoxicity at 70.5 h for `O=C(c1ccnnc1)N1CCN2C[C@H](Oc3cccnc3)C[C@H]2C1` was -0.791

Reported cytotoxicity at 70.5 h for `Cc1nc(COc2ccc(CNCCn3cccn3)cc2)cs1` was 4.56

Reported cytotoxicity at 70.5 h for O=C(CS(=O)(=O)c1ccccc1Cl)NC1CCCCNC1=O (stereo not given) was -25.9

Reported cytotoxicity at 70.5 h for `Cc1cccc(-c2nc(CN3CCc4cnc(C)nc4C3)no2)c1` was -21.3

Reported cytotoxicity at 70.5 h for Cc1cc(C[S+]([O-])CC(=O)NCC(C)C)no1 (stereo not given) was -1.65

Reported cytotoxicity at 70.5 h for `CCCN(C)C(=O)c1cc(S(=O)(=O)NCC)ccc1C` was -1.03

Reported cytotoxicity at 70.5 h for CC(=O)N(C)C(c1cccnc1)c1ccc(F)c(F)c1 (stereo not given) was 23.1

Reported cytotoxicity at 70.5 h for `NC(=O)C1CCN(c2nc3nccc(-c4ccncc4)c3c(=O)[nH]2)CC1` was -1.26

Reported cytotoxicity at 70.5 h for `CS(=O)(=O)NC[C@@H]1OC[C@H]2CN(C(=O)c3ccc[nH]3)CC[C@H]21` was 3.6

Reported cytotoxicity at 70.5 h for Cc1nc(C)n(C2CCCN(C(=O)CCc3cn(C)nc3C)C2)n1 (stereo not given) was -0.365

Reported cytotoxicity at 70.5 h for `CN(CC(=O)NCc1cccnc1N1CCCCC1)C(=O)c1cccs1` was 0.0514

Reported cytotoxicity at 70.5 h for `CC1CCN(C(=O)c2cn(-c3cc(N4CCOCC4)ncn3)cn2)CC1` was -14

Reported cytotoxicity at 70.5 h for Cc1ccc(C2CSCCN2C(=O)c2ccccn2)cc1 (stereo not given) was -13.2

Reported cytotoxicity at 70.5 h for `CCOc1ccc(NC(=O)N2CCC(n3cncn3)CC2)cc1Cl` was 19.7

Reported cytotoxicity at 70.5 h for `Cc1nc(CN(C)Cc2cn[nH]c2-c2ccc(F)cc2)c[nH]1` was 5.97

Reported cytotoxicity at 70.5 h for CCOCC1c2c(ncn2C(C)C)CCN1C(=O)C1CC1 (stereo not given) was -3.05

Reported cytotoxicity at 70.5 h for CC(c1ccon1)N(C)C(=O)C1CCN(C2CCCCC2)CC1 (stereo not given) was -1.12

Reported cytotoxicity at 70.5 h for `O=C(CCn1cc(Cl)cn1)N1CCC2(CC1)[C@H](O)C[C@@H]2OCCO` was -1.08

Reported cytotoxicity at 70.5 h for `CC(C)N1CCN(C(=O)c2csc3nc(-c4ccc(Cl)cc4)cn23)CC1` was -16.3

Reported cytotoxicity at 70.5 h for `Cn1cc(C(=O)N2CCSc3ccccc32)ccc1=O` was 3.72

Reported cytotoxicity at 70.5 h for `CN(C)CCN1CCO[C@@H]2CCN(C(=O)c3cccn3C)CC[C@H]21` was 10.8

Reported cytotoxicity at 70.5 h for Cc1cc(C)n(CC2CN(CCOc3ccccc3F)CCO2)n1 (stereo not given) was -2.73

Reported cytotoxicity at 70.5 h for `Cc1c(C(=O)O)sc2nc(C(F)(F)F)ccc12` was -18.5

Reported cytotoxicity at 70.5 h for `Cn1cnc2cc(C(=O)N3CCN(CCO)[C@@H]4CS(=O)(=O)C[C@@H]43)ccc21` was -0.937

Reported cytotoxicity at 70.5 h for `Cc1cs/c(=N\C(=O)Cn2nc(N3CCOCC3)ccc2=O)[nH]1` was -13.8

Reported cytotoxicity at 70.5 h for `O=C1[C@H]2CN(Cc3ccoc3)C[C@H]2CN1CCN1CCCC1` was -12.5

Reported cytotoxicity at 70.5 h for `O=C(NC1CC1)c1cc(C(F)(F)F)cc(C(=O)NC2CC2)n1` was 23

Reported cytotoxicity at 70.5 h for `CO[C@@H]1CCN(Cc2cccs2)[C@@H]2CN(Cc3ccncc3)C[C@@H]21` was -3.45

Reported cytotoxicity at 70.5 h for `O=S(=O)(C1CC1)N1CCO[C@H]2[C@@H](Oc3cccnc3)CC[C@@H]21` was -5.72

Reported cytotoxicity at 70.5 h for `O=C(c1cnns1)N1CCN(c2ccc(F)cc2Cl)CC1` was 4.28

Reported cytotoxicity at 70.5 h for `Cn1ccnc(Sc2ccccc2)c1=O` was -9.9

====

Please respond with reported cytotoxicity at 70.5 h for every item in the list.
# Assay comment: Human HepG2 cell viability assay in 384 well format
# Type: toxicity, cell-based
# Set-up: dose 125 nL, time 70.5 hour; concentration not given beside the values
# Test context: HepG2 cells, read-out: Inhibition
Please reply with the bare figure in % and do not write the unit itself.

Reported cytotoxicity at 70.5 h for `CN(Cc1cn2c(n1)CN(Cc1nccs1)CC2)Cc1ccco1` was -7.68

Reported cytotoxicity at 70.5 h for `CCOc1nnc(CN2CCC(c3nc4ccccc4[nH]3)CC2)s1` was 1.06

Reported cytotoxicity at 70.5 h for `CCc1nc(N2CCCN(c3ncccn3)CC2)c2cnn(C)c2n1` was -7.44

Reported cytotoxicity at 70.5 h for CC(=O)N1C[C@H]2CCCC(N3CCN(c4ncccn4)CC3)[C@H]2C1 (stereo partly specified) was 11.4

Reported cytotoxicity at 70.5 h for `O=C1NC2(CCCCC2)c2nnnn2-c2ccc(Br)cc21` was -5.57

Reported cytotoxicity at 70.5 h for `Cc1ccccc1N1CCCN(C(=O)CCc2nncn2C)CC1` was -7.29

====

Please respond with reported cytotoxicity at 70.5 h for every item in the list.
# Assay comment: Human HepG2 cell viability assay in 384 well format
# Format: toxicity, cell-based
# Set-up: dose 125 nL, time 70.5 hour; concentration not given beside the values
# Test context: HepG2 cells, read-out: Inhibition
Please reply with the bare figure in % and do not write the unit itself.

Reported cytotoxicity at 70.5 h for `O=C(O)c1cc(S(=O)(=O)Nc2cccc3c2OCCO3)ccc1F` was -18.2

Reported cytotoxicity at 70.5 h for `Cc1cc(NC(=O)N2CCC[C@@H]2CO)nn1-c1ccccc1Cl` was -7.9

Reported cytotoxicity at 70.5 h for `Cc1cccc(CN2CC[C@@H]3[C@@H]2CCN3C(=O)Cc2cccs2)n1` was -11.7

Reported cytotoxicity at 70.5 h for `CCNC(=O)CN(CC)C(=O)Cc1csc(C(C)C)n1` was -1.29

Reported cytotoxicity at 70.5 h for Cc1nn(-c2ccccc2)cc1C(=O)N1CCCC(n2ccnc2C)C1 (stereo not drawn) was -4.52

Reported cytotoxicity at 70.5 h for `COc1ccc2c(c1)OC1(CCN(Cc3ccc(F)cc3)CC1)CC2=O` was 1.23

Reported cytotoxicity at 70.5 h for `Cc1noc2nc(C3CCN(Cc4cccnc4)CC3)cc(C(F)F)c12` was -3.96

Reported cytotoxicity at 70.5 h for CN(C)C(=O)N1CCC2(CC1)C(c1cnn(C)c1)CC(=O)N2C (stereo not drawn) was -7.08

Reported cytotoxicity at 70.5 h for CCS(=O)(=O)NC1CCc2c(ccc(=O)n2CC2CC2)C1 (stereo not drawn) was -7.75

Reported cytotoxicity at 70.5 h for CCc1nc2n(n1)CC(NCC(=O)Nc1oc(C)c(C)c1C#N)CC2 (stereo not drawn) was 7.08

Reported cytotoxicity at 70.5 h for `COc1cccc(C(=O)N2C[C@H]3CC[C@@H]2CN(Cc2cscn2)C3)c1` was -23.3

Reported cytotoxicity at 70.5 h for CC(C(=O)NCCN1CCOCC1)n1cncn1 (stereo not drawn) was -11.7

Reported cytotoxicity at 70.5 h for `CCN(Cc1ccncc1)c1nc(C)nc2oc(C)nc12` was -5.52

Reported cytotoxicity at 70.5 h for `O=C(c1cscn1)N1CCc2c(COCC3CC3)cncc2C1` was -1.4

Reported cytotoxicity at 70.5 h for `CC(C)CNC(=O)[C@H]1CCS(=O)(=O)[C@@H]2CN(Cc3ccc(Cl)cc3)C[C@H]12` was 3.8

Reported cytotoxicity at 70.5 h for `COCCn1ccnc1-c1cc(CN2CCCCC2)cs1` was 33.9

Reported cytotoxicity at 70.5 h for `CO[C@H]1CN(Cc2cc(F)ccc2F)CC[C@@]12CCCO2` was -2.25

Reported cytotoxicity at 70.5 h for `NS(=O)(=O)CCCNC(=O)c1cnc(-c2ccsc2)s1` was -6.58

Reported cytotoxicity at 70.5 h for `Cc1ccsc1C(=O)N1C[C@@H](C(=O)O)[C@H](C(C)C)C1` was 0.968

Reported cytotoxicity at 70.5 h for `COc1ccc(C(=O)N2CCC(c3nccn3C(C)C)CC2)cc1OC` was 22.5

Reported cytotoxicity at 70.5 h for `Cc1nc(C(=O)N[C@H]2COC[C@@H]2N2CCCCC2)cs1` was 17.8

Reported cytotoxicity at 70.5 h for CC(C)CN1CC(C(=O)NCCNc2ncccn2)CC1=O (stereo not drawn) was -0.397

Reported cytotoxicity at 70.5 h for `CCS(=O)(=O)NC[C@]12COC[C@H]1CN(Cc1ccncc1)C2` was -5.02

Source listed as ChEMBL document CHEMBL3507680.
